Origin of values: ChEMBL document CHEMBL3244316

# System: Mus musculus
# METHOD NOTES: Anticonvulsant activity in ip dosed albino CF-1 mouse assessed as inhibition of nicotine-induced seizures
# Assay type: functional
# STUDY CONDITIONS: CF-1, ip
Quick reference for log10(ED50) among some compounds
The base-10 logarithm of ED50, taken with ED50 in mg/kg, is what appears here.

Cc1nnc2n1-c1ccc(Cl)cc1C(c1ccccc1Cl)=NC2O (stereo not given) tested on Mus musculus gave log10(ED50): 1.00

CN(C)Cc1nnc2n1-c1ccc(Cl)cc1C(c1ccccc1)=NC2O (stereo not given) tested on Mus musculus gave log10(ED50): 0.34

OCc1nnc2n1-c1ccc(Cl)cc1C(c1ccccc1Cl)=NC2O (stereo not given) tested on Mus musculus gave log10(ED50): 0.00

Cc1nnc2n1-c1ccc(Cl)cc1C(c1ccccc1)=NC2O (stereo not given) [4-HYDROXY-ALPRAZOLAM] tested on Mus musculus gave log10(ED50): 0.60

Cc1nnc2n1-c1ccc(Cl)cc1C(c1ccccc1)=NC2 tested on Mus musculus gave log10(ED50): -1.70

Now for the compound whose log10(ED50) we want.
Cc1nnc2n1-c1ccc(Cl)cc1C(c1ccccc1Cl)=NC2 tested on Mus musculus gave log10(ED50): -2.40

---

Quick reference for ED50 among some compounds
# Test system: Mus musculus
# METHOD NOTES: Anticonvulsant activity in ip dosed albino CF-1 mouse assessed as inhibition of nicotine-induced seizures
# Format: functional
# STUDY CONDITIONS: CF-1, ip
Unit mg/kg implied. Number only.

Documented ED50 of CN1C(=O)CN=C(c2ccccc2)c2cc(Cl)ccc21 [DIAZEPAM] : 0.1

Documented ED50 of O=C1Nc2ccc(Cl)cc2C(c2ccccc2)=NC1O (stereo unspecified) [OXAZEPAM] : 0.14

Documented ED50 of CN1C(=O)C(O)N=C(c2ccccc2)c2cc(Cl)ccc21 (stereo unspecified) [TEMAZEPAM] : 0.063

Documented ED50 of Clc1ccc2c(c1)C(c1ccccc1)=NCc1nccn1-2 : 1

Documented ED50 of OC1N=C(c2ccccc2)c2cc(Cl)ccc2-n2ccnc21 (stereo unspecified) : 4

Now for the compound whose ED50 we want.
Documented ED50 of OCc1nnc2n1-c1ccc(Cl)cc1C(c1ccccc1)=NC2O (stereo unspecified) : 6.2

---

# System: Mus musculus
# METHOD NOTES: Anxiolytic activity in ip dosed albino CF-1 mouse under hypoxic stress
# Assay type: functional
# STUDY CONDITIONS: CF-1, ip
Quick reference for ED50 among some compounds
Unit mg/kg implied. Number only.

As a guide, the following entries are already answered.
Clc1ccc2c(c1)C(c1ccccc1)=NCc1nccn1-2 tested on Mus musculus gave ED50: 25

OCc1nnc2n1-c1ccc(Cl)cc1C(c1ccccc1)=NC2 tested on Mus musculus gave ED50: 0.02

CN1C(=O)C(O)N=C(c2ccccc2)c2cc(Cl)ccc21 (centres undefined) tested on Mus musculus gave ED50: 0.2

Now for the compound whose ED50 we want.
CN(C)Cc1nnc2n1-c1ccc(Cl)cc1C(c1ccccc1)=NC2 tested on Mus musculus gave ED50: 1.9

---

# Test system: Mus musculus
# METHOD NOTES: Anticonvulsant activity in ip dosed albino CF-1 mouse assessed as inhibition of nicotine-induced seizures
# Format: functional
# STUDY CONDITIONS: CF-1, ip
MEASUREMENT TYPE: ED50 (mg/kg)
Unit mg/kg implied. Number only.

Documented ED50 of OCc1nnc2n1-c1ccc(Cl)cc1C(c1ccccc1Cl)=NC2 : 0.01

Documented ED50 of OCc1nnc2n1-c1ccc(Cl)cc1C(c1ccccc1)=NC2 : 0.08

Documented ED50 of CN(C)Cc1nnc2n1-c1ccc(Cl)cc1C(c1ccccc1)=NC2 [ADINAZOLAM] : 0.2

Now for the compound whose ED50 we want.
Documented ED50 of O=C1CN=C(c2ccccc2)c2cc(Cl)ccc2N1 [NORDAZEPAM] : 0.3
